This collection of values is drawn from BigSolDB 2.1.

- CONDITION SET: in isopropanol, 293.15 K
PARAMETER: solubility (mole fraction)
Give only the figure.

-- ask # lookup: solubility (mole fraction) of O=C(NCCO[N+](=O)[O-])c1cccnc1
-- reply 0.00139

---

- CONDITION SET: in DMF, 313.15 K
PARAMETER: solubility (mole fraction)
Would you mind answering with just the numeric figure?

-- ask Could you tell me which solubility (mole fraction) is on file for O=C(NCCO[N+](=O)[O-])c1cccnc1 ?
-- reply 0.0213

---

- CONDITION SET: in isopropanol, 323.15 K
PARAMETER: solubility (mole fraction)
Simply state the number, no unit and no words.

-- ask I would be grateful if you could share the reported solubility (mole fraction) for O=C(NCCO[N+](=O)[O-])c1cccnc1 .
-- reply 0.002

---

- CONDITION SET: in ethanol, 308.15 K
PARAMETER: solubility (mole fraction)

-- ask // returns reported solubility (mole fraction) for input O=C(NCCO[N+](=O)[O-])c1cccnc1
-- reply 0.00236

---

- CONDITION SET: in isopropanol, 288.15 K
PARAMETER: solubility (mole fraction)
Give a plain numeric answer without units written out.

-- ask Data request, read-out solubility (mole fraction), for O=C(NCCO[N+](=O)[O-])c1cccnc1
-- reply 0.00129

---

- CONDITION SET: in methanol, 308.15 K
PARAMETER: solubility (mole fraction)
Give the figure by itself; no unit, no explanation.

-- ask # lookup: solubility (mole fraction) of O=C(NCCO[N+](=O)[O-])c1cccnc1
-- reply 0.00256

---

- CONDITION SET: in water, 288.15 K
PARAMETER: solubility (mole fraction)

-- ask Would you mind telling me what solubility (mole fraction) value was observed for O=C(NCCO[N+](=O)[O-])c1cccnc1 ?
-- reply 0.00024

---

- CONDITION SET: in ethanol, 278.15 K
PARAMETER: solubility (mole fraction)
# output: bare number, no unit

-- ask What does the data say about its solubility (mole fraction)? Entry: O=C(NCCO[N+](=O)[O-])c1cccnc1
-- reply 0.00153

---

- CONDITION SET: in water, 293.15 K
PARAMETER: solubility (mole fraction)
When you answer, write just the number.

-- ask Requested field: solubility (mole fraction). Item: O=C(NCCO[N+](=O)[O-])c1cccnc1
-- reply 0.000257

---

- CONDITION SET: in DMF, 303.15 K
PARAMETER: solubility (mole fraction)
// return a plain number; no unit text

-- ask Recorded solubility (mole fraction) for O=C(NCCO[N+](=O)[O-])c1cccnc1 , please?
-- reply 0.0191

---

- CONDITION SET: in DMF, 308.15 K
PARAMETER: solubility (mole fraction)

-- ask What does the record list as solubility (mole fraction) for O=C(NCCO[N+](=O)[O-])c1cccnc1 ?
-- reply 0.0202

---

- CONDITION SET: in ethanol, 283.15 K
PARAMETER: solubility (mole fraction)
// response body must contain only the number

-- ask What does the data say about its solubility (mole fraction)? Entry: O=C(NCCO[N+](=O)[O-])c1cccnc1
-- reply 0.00167

---

- CONDITION SET: in water, 323.15 K
PARAMETER: solubility (mole fraction)
Give your answer as a number; write no unit.

-- ask Which solubility (mole fraction) value is on record for O=C(NCCO[N+](=O)[O-])c1cccnc1 ?
-- reply 0.000367

---

- CONDITION SET: in ethanol, 323.15 K
PARAMETER: solubility (mole fraction)
Simply state the number, no unit and no words.

-- ask Request the reported solubility (mole fraction) associated with O=C(NCCO[N+](=O)[O-])c1cccnc1
-- reply 0.00281

---

- CONDITION SET: in isopropanol, 313.15 K
PARAMETER: solubility (mole fraction)
When you answer, write just the number.

-- ask Can you look up the measured solubility (mole fraction) of O=C(NCCO[N+](=O)[O-])c1cccnc1 for me?
-- reply 0.00178

---

- CONDITION SET: in water, 318.15 K
PARAMETER: solubility (mole fraction)
API note: the answer field is a bare number with no unit suffix.

-- ask Quick one: solubility (mole fraction) of O=C(NCCO[N+](=O)[O-])c1cccnc1 ?
-- reply 0.000346

---

- CONDITION SET: in methanol, 293.15 K
PARAMETER: solubility (mole fraction)
The response must contain the number and no unit.

-- ask Tell me the measured solubility (mole fraction) of O=C(NCCO[N+](=O)[O-])c1cccnc1 , please.
-- reply 0.00211

---

- CONDITION SET: in isopropanol, 318.15 K
PARAMETER: solubility (mole fraction)
// no unit string in output, number only

-- ask Any idea what its solubility (mole fraction) is? The compound is O=C(NCCO[N+](=O)[O-])c1cccnc1
-- reply 0.00188

---

- CONDITION SET: in water, 278.15 K
PARAMETER: solubility (mole fraction)

-- ask # get_value(readout='solubility (mole fraction)', item= O=C(NCCO[N+](=O)[O-])c1cccnc1 )
-- reply 0.000204

---

- CONDITION SET: in ethanol, 298.15 K
PARAMETER: solubility (mole fraction)
Provide a numeric answer; units are not to be included.

-- ask Reported solubility (mole fraction), molecule O=C(NCCO[N+](=O)[O-])c1cccnc1 : ____
-- reply 0.00208

---

- CONDITION SET: in methanol, 298.15 K
PARAMETER: solubility (mole fraction)
Write the value as a bare number.

-- ask What value of solubility (mole fraction) has been reported for the following compound? O=C(NCCO[N+](=O)[O-])c1cccnc1
-- reply 0.00226

---

- CONDITION SET: in DMF, 278.15 K
PARAMETER: solubility (mole fraction)
// return just the number, without any unit appended

-- ask Please look up its solubility (mole fraction): O=C(NCCO[N+](=O)[O-])c1cccnc1
-- reply 0.0135

---

- CONDITION SET: in methanol, 323.15 K
PARAMETER: solubility (mole fraction)
Answer with a bare number; do not write a unit.

-- ask Return reported solubility (mole fraction); argument: O=C(NCCO[N+](=O)[O-])c1cccnc1
-- reply 0.00306

---

- CONDITION SET: in DMF, 283.15 K
PARAMETER: solubility (mole fraction)
Reply with the value as a number alone.

-- ask // lookup solubility (mole fraction) for O=C(NCCO[N+](=O)[O-])c1cccnc1
-- reply 0.0146

---

- CONDITION SET: in water, 303.15 K
PARAMETER: solubility (mole fraction)
The reply should be a number, written without any unit.

-- ask Which solubility (mole fraction) value belongs to O=C(NCCO[N+](=O)[O-])c1cccnc1 ?
-- reply 0.000291

---

- CONDITION SET: in methanol, 283.15 K
PARAMETER: solubility (mole fraction)
# print the numeric value only

-- ask Recorded solubility (mole fraction) of O=C(NCCO[N+](=O)[O-])c1cccnc1 , please.
-- reply 0.00182

---

- CONDITION SET: in isopropanol, 283.15 K
PARAMETER: solubility (mole fraction)

-- ask Which solubility (mole fraction) is listed for O=C(NCCO[N+](=O)[O-])c1cccnc1 ?
-- reply 0.00119

---

- CONDITION SET: in ethanol, 318.15 K
PARAMETER: solubility (mole fraction)
Would you mind answering with just the numeric figure?

-- ask For O=C(NCCO[N+](=O)[O-])c1cccnc1 , what is its reported solubility (mole fraction)?
-- reply 0.00264

---

- CONDITION SET: in isopropanol, 308.15 K
PARAMETER: solubility (mole fraction)
Respond numerically, and do not add a unit to the figure.

-- ask Request the reported solubility (mole fraction) associated with O=C(NCCO[N+](=O)[O-])c1cccnc1
-- reply 0.00169

---

- CONDITION SET: in isopropanol, 298.15 K
PARAMETER: solubility (mole fraction)
Lab note: jot down the number only; don't add units.

-- ask Suppose we examine the compound O=C(NCCO[N+](=O)[O-])c1cccnc1 ; what solubility (mole fraction) value has been reported?
-- reply 0.00149

---

- CONDITION SET: in DMF, 323.15 K
PARAMETER: solubility (mole fraction)
Kindly provide the number alone.

-- ask Name the reported solubility (mole fraction) value associated with the compound O=C(NCCO[N+](=O)[O-])c1cccnc1
-- reply 0.024

---

- CONDITION SET: in DMF, 293.15 K
PARAMETER: solubility (mole fraction)
// return just the number, without any unit appended

-- ask Form field: reported solubility (mole fraction) of O=C(NCCO[N+](=O)[O-])c1cccnc1
-- reply 0.0168
